assay: Leishmania major promastigote growth inhibition, primary screen (AID 1063); conditions: Leishmania major promastigotes, resazurin fluorescence viability; at 10 µM; hits give high values;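 further: promastigotes grown with compound for 44 hours at 28 °C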
Out of some 200,000 compounds screened, about 18,000 (9%) were called active. This is one part of a sample in which actives are shown more often than they occur.
recorded_metric: inhibition

{"columns": ["compound", "recorded_measurement"],
 "data": [
  ["C=CCN(Cc1nc(-c2cc(OC)c3c(c2)OCO3)oc1C)C1CCS(=O)(=O)C1 (configuration not stated)", "64.6% (active)"],
  ["COc1ccccc1OCCNc1cc(N2CCOCC2)ccc1[N+](=O)[O-]", "2.32% (inactive)"],
  ["c1ccc(-c2nccc(-c3ccc(-n4cnc5ccccc54)cc3)n2)nc1", "101% (active)"],
  ["COc1ccc(CCc2nnc(CCC(=O)NCc3cnn(-c4ccccc4C)c3)o2)cc1", "6.37% (inactive)"],
  ["COc1cccc2cc(/C(C)=N/NC(=O)c3ccco3)oc12", "31% (inactive)"]
]}

// each listed compound needs a value for inhibition
1. COc1ccc(-c2cn3cccnc3n2)cc1
2. CC(=O)c1c(C)[nH]c(C(=O)Nc2cc(S(=O)(=O)N(C)C)ccc2C)c1C
3. COC(=O)C1=C(C(=O)OC)C(c2cc([N+](=O)[O-])ccc2O)c2sc(=O)[nH]c2S1 (configuration not stated)
4. CCCCCC(=O)Nc1ccc(-c2cn3cccnc3n2)cc1

10.2% (inactive)
-6.9% (inactive)
-11.4% (inactive)
-7.19% (inactive)

// each listed compound needs a value for inhibition
1. COc1ccc(-c2nc3cnccn3c2NC(C)(C)CC(C)(C)C)cc1O
2. Cc1ccc(C(=O)N/C(=C\c2cccs2)C(=O)NCCc2ccccn2)cc1C
3. Cc1ccc(COc2ccc(C(=O)NN)cc2)cc1
4. CCCn1c(C(O)c2cc(OC)ccc2OC)nc2ccccc21 (configuration not stated)
5. COCCCNC(=S)NC(=O)c1ccc([N+](=O)[O-])cc1
6. CN(C)NC(=O)C(NC(=O)c1ccc(N)cc1)C12CC3CC(CC(C3)C1)C2 (configuration not stated)
7. Cn1c(-c2ccccc2)c[n+]2c1CCCCC2

1: 32.8% (inactive); 2: 16.6% (inactive); 3: -1.34% (inactive); 4: 19% (inactive); 5: -8.2% (inactive); 6: 3.34% (inactive); 7: 0.17% (inactive)

For "Cc1ccc(C(=O)N2CCCC(c3ccccc3)=N2)cc1" the compound record lists inhibition as 16.1% (inactive)

Reference for the values: PubChem BioAssay AID1063
